pIC50: −log10 of the molar value.
// merged dataset of pIC50 values, system = IKKε (Homo sapiens), multiple refs
metric.name: pIC50

The examples below pair each entry with its known result.
1) CN1CCN(Cc2ccc(C(=O)Nc3sc(-c4ccncc4F)nc3C(N)=O)cc2)CC1 :: 6.55
2) CC1CN(C(=O)NC2CCCC2)CC=C1c1c[nH]c2ncc(-c3ccc(CN4CCOCC4)s3)cc12 (centres unmarked) :: 7.00

[A] N#Cc1cc(-c2ccnc(Nc3ccn(C4CCNCC4)n3)c2)ccc1OCC1CC1
[B] Cn1ccc(-c2cnc(N)c(C(=O)Nc3ccncc3)c2)n1
[C] N#Cc1cc(-c2ccnc(Nc3nccc(C4CCNCC4)n3)c2)ccc1OC1CCOCC1
Task: Please list the entries, largest pIC50 first. Your answer should be the labels, listed in the requested order.
Output: A, C, B
(A: 7.52, C: 6.92, B: 6.42)

====

// merged dataset of IC50 values, system = IKKε (Homo sapiens), multiple refs
metric.name: IC50 (nM)

The examples below pair each entry with its known result.
1. N#Cc1cc(-c2ccnc(Nc3cnn(CC(F)F)c3)c2)ccc1OC1CCOCC1 :: 51
2. N#Cc1cc(-c2ccnc(Nc3cnn(CCC4CCNCC4)c3)c2)ccc1OC1CCOCC1 :: 37
3. COc1ccc(Nc2nccc(-c3ccc(N)c4c3CNC4=O)n2)cc1 :: 360

[1] CN1CCN(Cc2ccc(C(=O)Nc3sc(-c4ccncc4Cl)nc3C(N)=O)cc2)CC1
[2] N#Cc1cc(-c2ccnc(Nc3ccc(C4CCNCC4)nn3)c2)ccc1OC1CCOCC1
Task: Given the listed items, does 1 or 2 have the lesser reported IC50? Answer by stating the label of the chosen item.
Output: 2
(2: 6 nM, 1: 630 nM)

====

pIC50: −log10 of the molar value.
// merged dataset of pIC50 values, system = IKKε (Homo sapiens), multiple refs
metric.name: pIC50

The examples below pair each entry with its known result.
1) Nc1ncc(-c2csc(CN3CCOCC3)c2)cc1C(=O)Nc1ccncc1 :: 6.48
2) N#Cc1cc(-c2ccnc(Nc3nc(C4CC4)cs3)n2)ccc1OC1CCOCC1 :: 6.52
3) Nc1ncc(-c2cccc(-n3cccn3)c2)cc1C(=O)Nc1ccnnc1 :: 6.19
4) N#Cc1ccc(Nc2cc(-c3ccc(OC4CCOCC4)c(C#N)c3)ccn2)nc1 :: 6.62

[a] Nc1ncc(-c2ccc(CN3CCOCC3)s2)cc1C(=O)Nc1ccncc1
[b] CN1CCN(Cc2ccc(C(=O)Nc3sc(-c4ccncc4)nc3C(N)=O)cc2)CC1
[c] N#Cc1cc(-c2ccnc(Nc3cnn(C4CCNCC4)c3)n2)ccc1OC1CCOCC1
[d] CC(C)NC(=O)N1CC=C(c2c[nH]c3ncc(-c4ccccc4)cc23)CC1
[e] CS(=O)(=O)c1cccc(-c2cnc3[nH]cc(C4=CCN(C(=O)NC5CCCC5)CC4)c3c2)c1
Task: Arrange the 5 entries by pIC50 so the values rise. Your answer should be the labels, listed in the requested order.
Output: d, a, b, e, c
(d: 5.09, a: 6.35, b: 6.70, e: 7.32, c: 8.22)

====

pIC50: −log10 of the molar value.
// merged dataset of pIC50 values, system = IKKε (Homo sapiens), multiple refs
metric.name: pIC50

1. CCCCC(=O)N1CC=C(c2c[nH]c3ncc(-c4ccc(CN5CCOCC5)s4)cc23)CC1 :: 6.29

[A] Cn1cccc1C(=O)Nc1sc(-c2ccncc2)nc1C(N)=O
[B] O=C(c1cccs1)N1CC=C(c2c[nH]c3ncc(-c4ccc(S(=O)(=O)N5CCOCC5)cc4)cc23)CC1
[C] CN1CCC(n2cc(Nc3cc(-c4ccc(OC5CCOCC5)c(C#N)c4)ccn3)cn2)CC1
Task: Arrange the 3 entries by pIC50 so the values rise. Your answer should be the labels, listed in the requested order.
Output: A, B, C
(A: 5.92, B: 6.41, C: 7.70)

====

pIC50: −log10 of the molar value.
// merged dataset of pIC50 values, system = IKKε (Homo sapiens, UniProt Q14164), multiple refs
metric.name: pIC50

The examples below pair each entry with its known result.
1. CN1CCN(Cc2ccc(-c3cnc4[nH]cc(C5=CCN(C(=O)NC6COC6)CC5)c4c3)cc2)CC1 :: 7.26
2. CC1CC(c2c[nH]c3ncc(-c4ccc(CN5CCOCC5)s4)cc23)=CCN1C(=O)NC1CCCC1 (centres unmarked) :: 6.72
3. Cn1cc(-c2cnc(N)c(C(=O)Nc3ccncc3)c2)cn1 :: 6.32

[A] COCCn1cc(Nc2cc(-c3ccc(OCC4CCN(C(C)=O)CC4)c(C#N)c3)ccn2)cn1
[B] CC(C)NC(=O)N1CC=C(c2c[nH]c3ncc(-c4ccc(CN5CCOCC5)cc4F)cc23)CC1
Task: Identify the entry with the larger pIC50. Options: A and B Answer by stating the label of the chosen item.
Output: B

====

// merged dataset of pIC50 values, system = IKKε (Homo sapiens), multiple refs
pIC50: −log10 of the molar value.
metric.name: pIC50

1. COCCCn1cc(Nc2cc(-c3ccc(OC4CCOCC4)c(C#N)c3)ccn2)cn1 :: 6.80
2. Nc1ncc(-c2ccc(CCC(=O)O)cc2)cc1C(=O)Nc1ccncc1 :: 6.22
3. CC(=O)N1CC=C(c2c[nH]c3ncc(-c4ccc(CN5CCOCC5)s4)cc23)CC1 :: 6.18
4. CCC(CC)NC(=O)N1CCC(c2c[nH]c3ncc(-c4ccc(CN5CCN(C)CC5)s4)cc23)=CC1C (centres unmarked) :: 6.74

[I] N#Cc1cc(-c2ccnc(Nc3nccnc3CO)c2)ccc1OC1CCOCC1
[II] N#Cc1cc(-c2ccnc(Nc3cnn(C4CCNC4)c3)n2)ccc1OC1CCOCC1 (centres unmarked)
Task: Identify the entry with the larger pIC50. Options: I and II Answer by stating the label of the chosen item.
Output: II
(II: 8.30, I: 6.37)

====

// merged dataset of IC50 values, system = UniProt Q14164, multiple refs
metric.name: IC50 (µM)

The examples below pair each entry with its known result.
1) Nc1ncc(-c2ccc(S(N)(=O)=O)cc2)cc1C(=O)Nc1ccncc1 :: 1.8
2) N#Cc1cc(-c2ccnc(Nc3ccc4oc(C(N)=O)cc4c3)c2)ccc1OC1CCOCC1 :: 0.39
3) CC(C)(C)c1cc(Nc2cc(-c3ccc(OC4CCOCC4)c(C#N)c3)ccn2)on1 :: 0.85
4) N#Cc1cc(-c2ccnc(Nc3cncc(N4CCOCC4)n3)c2)ccc1OC1CCOCC1 :: 0.39

[A] COc1ccc(-c2cnc3[nH]cc(C4=CCN(C(=O)NC5CCCC5)CC4)c3c2)cc1S(=O)(=O)N1CCOCC1
[B] COc1nc(Nc2nccc(-c3ccc(OC4CCOCC4)c(C#N)c3)n2)ccc1C1=CCNCC1
[C] NC(=O)c1nc(-c2ccncc2)sc1NC(=O)c1ccc(N2CCOCC2)nc1
[D] NC(=O)c1nc(-c2ccncc2)sc1NC(=O)c1ccc[nH]1
[E] CC(C)NC(=O)N1CC=C(c2c[nH]c3ncc(-c4ccc(CN5CCN(C)CC5)s4)cc23)CC1
Task: Please list the entries, largest IC50 first. Your answer should be the labels, listed in the requested order.
Output: C, A, D, B, E

====

// merged dataset of IC50 values, system = IKKε (Homo sapiens, UniProt Q14164), multiple refs

The examples below pair each entry with its known result.
1. COc1nc(Nc2cc(-c3ccc(O[C@H]4CCN(C(=O)[C@H](C)O)CC4(F)F)c(C#N)c3)ncn2)ccc1C1CCN(C2COC2)CC1 :: < 100 nM
2. CC(C)NC(=O)N1CC=C(c2c[nH]c3ncc(-c4ccc(CN5CCN(C)CC5)s4)cc23)C(C)C1 (stereo not drawn) :: 27 nM
3. CCN(CCN(C)C)C(=O)c1ccc(-c2cc3nccc(-c4ccc(OC5CCOCC5)c(C#N)c4)c3o2)cc1OC :: < 300 nM
4. COc1nc(Nc2cc(-c3ccc(OC4CCOCC4)c(C#N)c3)ncn2)ccc1C(=O)N1CC2CCC(C1)O2 :: < 100 nM
5. COc1nc(Nc2cc(-c3ccc(OC4CCNCC4)c(C#N)c3)ncn2)ccc1N1CCN(C)CC1 :: < 100 nM
6. N#Cc1cc(-c2ccnc(Nc3cnc(C4CCOCC4)cn3)c2)ccc1OC1CCOCC1 :: 8 nM
7. Cn1cc(-c2cnc3[nH]cc(-c4cn(C(CCN5CCCC5)c5ccccc5)nn4)c3n2)cn1 (stereo not drawn) :: 0.5 to 1000 nM
8. CN1CCC(Oc2ccc(-c3c[nH]c4ncc(-c5cnn(C)c5)cc34)cc2C#N)CC1 :: < 300 nM

Consider the record given below.
Task: // fetch IKKε (Homo sapiens, UniProt Q14164) IC50 for COc1cc(-c2cc3nccc(-c4ccc(OC5CCOCC5)c(C#N)c4)c3o2)ccc1C(=O)N1CC[C@@H](O)C1
Output: < 300 nM
